Source: patent US20250019437A1

Molecular target: T1, human TREM2 (triggering receptor expressed on myeloid cells 2) (human) (UniProt Q9NZC2)
T1 sequence (looked up): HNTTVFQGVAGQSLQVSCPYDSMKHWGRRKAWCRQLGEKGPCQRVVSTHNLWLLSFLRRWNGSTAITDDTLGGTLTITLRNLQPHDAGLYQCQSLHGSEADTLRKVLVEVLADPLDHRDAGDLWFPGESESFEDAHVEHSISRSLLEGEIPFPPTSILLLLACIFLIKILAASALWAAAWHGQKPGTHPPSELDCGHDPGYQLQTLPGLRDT
Assay: 2nd screen, 100 nM Ab
Values of Binding Signal (fold over 6E7 parental antibody) strictly less than 0.5 fold map to satisfied, and values of at least 0.5 fold map to not satisfied.

binder="6E7 antibody affinity modulation variant V30 (antibody, V domains shown) VH: EVQLVQSGAEVKKPGESLKISCKGSGSSFTSYWIAWVRQMPGKGLEWMGIIYPGDSDTRYSPSFQGQVTISADKSISTAYLQWSSLKASDTAMYFCARQRTFYYDSSDYFDYWGQGTLVTVSS VL: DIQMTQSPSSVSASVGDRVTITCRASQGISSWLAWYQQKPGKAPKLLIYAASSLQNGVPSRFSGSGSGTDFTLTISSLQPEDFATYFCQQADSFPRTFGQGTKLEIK" labelclass="not satisfied"
binder="6E7 antibody affinity modulation variant V69 (antibody, V domains shown) VH: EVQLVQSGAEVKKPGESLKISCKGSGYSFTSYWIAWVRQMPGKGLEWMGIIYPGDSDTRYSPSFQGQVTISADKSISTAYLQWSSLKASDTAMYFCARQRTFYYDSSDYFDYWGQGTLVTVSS VL: DIQMTQSPSSVSASVGDRVTITCRASQGISSYLAWYQQKPGKAPKLLIYAASSLQNGVPSRFSGSGSGTDFTLTISSLQPEDFATYFCQQADSFPRTFGQGTKLEIK" labelclass=satisfied
binder="6E7 antibody affinity modulation variant V10 (antibody, V domains shown) VH: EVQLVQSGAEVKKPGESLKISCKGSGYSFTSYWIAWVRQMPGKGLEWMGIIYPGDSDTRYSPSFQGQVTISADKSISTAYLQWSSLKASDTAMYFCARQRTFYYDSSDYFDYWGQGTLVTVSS VL: DIQMTQSPSSVSASVGDRVTITCRASQGISSWLAWYQQKPGKAPKLLIYSASSLQNGVPSRFSGSGSGTDFTLTISSLQPEDFATYFCQQADSFPRTFGQGTKLEIK" labelclass="not satisfied"
binder="6E7 antibody affinity modulation variant V79 (antibody, V domains shown) VH: EVQLVQSGAEVKKPGESLKISCKGSGYSFTSYWIAWVRQMPGKGLEWMGIIYPGDSDTNYSPSFQGQVTISADKSISTAYLQWSSLKASDTAMYFCARQRTFYYDSSDYFDYWGQGTLVTVSS VL: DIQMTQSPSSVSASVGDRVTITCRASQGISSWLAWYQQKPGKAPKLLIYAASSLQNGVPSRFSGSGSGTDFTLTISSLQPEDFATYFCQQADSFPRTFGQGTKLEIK" labelclass="not satisfied"

Switching to the query record.
Task: Say whether its Binding Signal (fold over 6E7 parental antibody) is strictly beneath 0.5 fold. Entry: 6E7 antibody affinity modulation variant V93 (antibody, V domains shown) VH: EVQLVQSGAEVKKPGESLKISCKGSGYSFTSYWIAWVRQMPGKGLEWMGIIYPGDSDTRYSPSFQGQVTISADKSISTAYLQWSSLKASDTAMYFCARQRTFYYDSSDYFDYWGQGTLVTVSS VL: DIQMTQSPSSVSASVGDRVTITCRASQGISGWLAWYQQKPGKAPKLLIYAASSLQNGVPSRFSGSGSGTDFTLTISSLQPEDFATYFCQQADSFPRTFGQGTKLEIK
Output: not satisfied
